- Tested on: human TLR7
- procedureSummary: TLR7 cellular NFκB-luc reporter assay in transiently transfected HEK293 cells
- Assay type: cell-based
- conditionSummary: Table IIC, lowest effective concentration, 6 hours incubation
measuredParameter: Human TLR7 (LEC, μM) (µM)
Quick reminder: number only, in µM, skip the unit.

Worked cases, Human TLR7 (LEC, μM) given:
# compound, targetDesc, dataValue
data = [
    ("CCCC[C@@H](CCO)Nc1nc(N)nc2c1CN(C(=O)c1cccn1C)CC2 [Compound 51]", "human TLR7", 0.5),
    ("CCCC[C@@H](CCO)Nc1nc(N)nc2c1CN(C(=O)c1cccs1)CC2 [Compound 45]", "human TLR7", 0.2),
    ("CCCCNc1nc(N)nc2c1CN(C(=O)C1CCOCC1)CC2 [Compound 31]", "human TLR7", 7.7),
]

Given the compound CCC[C@@H](CCO)Nc1nc(N)nc2c1CN(C(=O)c1ccco1)CC2 [Compound 41] , what is its reported Human TLR7 (LEC, μM)?
0.4

From: patent US9365571B2
